Source listed as patent US20210388087A1.

- study system: T1, CD3 epsilon homodimer protein (UniProt P07766 23-126)
- T1 construct: also called CD3 (CD3 epsilon)
- T1 sequence (P07766 23-126): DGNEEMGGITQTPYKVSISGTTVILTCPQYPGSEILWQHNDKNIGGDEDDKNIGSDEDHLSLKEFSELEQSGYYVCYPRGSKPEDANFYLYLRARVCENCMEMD
- protocol description: SPR Biacore T200, CD3e homodimer on chip, vs unaltered GLS3000 antibody
parameter measured: ratio of amounts bound (Z=Y/X)
API note: the answer field is a bare number with no unit suffix.

Input GLS3000 N30F (antibody, name in Kabat numbering, V domains shown, one-arm IgG as m2) VH: QVQLVESGGGVVQPGRSLRLSCAASGFTFSNAWMHWVRQAPGKGLEWVAQIKAKSNNYATYYAESVKGRFTISRDDSKNSLYLQMNSLKTEDTAVYYCRYVHYGAYYGVDAWGQGTTVTVSS VL: DIVMTQSPLSLPVTPGEPASISCRSSQSLVHSNRFTYLHWYQQKPGQAPRLLIYKVSNRFSGVPDRFSGSGSGTDFTLKISRVEAEDVGVYYCGQGTQVPYTFGQGTKLEIK . Output ratio of amounts bound (Z=Y/X): 1.1

Item: GLS3000 H27dR (antibody, name in Kabat numbering, V domains shown, one-arm IgG as m2) VH: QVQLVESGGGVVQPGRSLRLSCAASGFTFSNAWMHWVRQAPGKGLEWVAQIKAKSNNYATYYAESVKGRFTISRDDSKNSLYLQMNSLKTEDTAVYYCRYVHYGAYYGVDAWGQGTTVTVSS VL: DIVMTQSPLSLPVTPGEPASISCRSSQSLVRSNRNTYLHWYQQKPGQAPRLLIYKVSNRFSGVPDRFSGSGSGTDFTLKISRVEAEDVGVYYCGQGTQVPYTFGQGTKLEIK | ratio of amounts bound (Z=Y/X): 0.31

Note to self: ratio of amounts bound (Z=Y/X) recorded for GLS3000 G89Q (antibody, name in Kabat numbering, V domains shown, one-arm IgG as m2) VH: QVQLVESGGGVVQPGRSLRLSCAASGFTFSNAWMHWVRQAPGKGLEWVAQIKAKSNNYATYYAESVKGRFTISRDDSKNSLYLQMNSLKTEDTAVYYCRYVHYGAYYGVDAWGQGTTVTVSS VL: DIVMTQSPLSLPVTPGEPASISCRSSQSLVHSNRNTYLHWYQQKPGQAPRLLIYKVSNRFSGVPDRFSGSGSGTDFTLKISRVEAEDVGVYYCQQGTQVPYTFGQGTKLEIK was 0.38

For record GLS3000 S27eM (antibody, name in Kabat numbering, V domains shown, one-arm IgG as m2) VH: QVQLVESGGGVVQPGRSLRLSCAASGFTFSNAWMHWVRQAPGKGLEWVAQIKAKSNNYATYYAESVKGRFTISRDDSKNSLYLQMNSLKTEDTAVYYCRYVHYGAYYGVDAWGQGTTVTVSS VL: DIVMTQSPLSLPVTPGEPASISCRSSQSLVHMNRNTYLHWYQQKPGQAPRLLIYKVSNRFSGVPDRFSGSGSGTDFTLKISRVEAEDVGVYYCGQGTQVPYTFGQGTKLEIK the listed ratio of amounts bound (Z=Y/X) is 1.23

ratio of amounts bound (Z=Y/X) for GLS3000 S56A (antibody, name in Kabat numbering, V domains shown, one-arm IgG as m2) VH: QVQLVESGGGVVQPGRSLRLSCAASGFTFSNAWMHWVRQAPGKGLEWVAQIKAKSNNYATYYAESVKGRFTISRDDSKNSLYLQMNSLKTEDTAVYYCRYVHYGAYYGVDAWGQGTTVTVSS VL: DIVMTQSPLSLPVTPGEPASISCRSSQSLVHSNRNTYLHWYQQKPGQAPRLLIYKVSNRFAGVPDRFSGSGSGTDFTLKISRVEAEDVGVYYCGQGTQVPYTFGQGTKLEIK is 1.16

Measured ratio of amounts bound (Z=Y/X) of GLS3000 V94M (antibody, name in Kabat numbering, V domains shown, one-arm IgG as m2) VH: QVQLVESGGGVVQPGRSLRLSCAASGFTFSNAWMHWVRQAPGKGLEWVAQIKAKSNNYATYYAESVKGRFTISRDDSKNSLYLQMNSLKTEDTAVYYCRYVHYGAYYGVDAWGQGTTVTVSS VL: DIVMTQSPLSLPVTPGEPASISCRSSQSLVHSNRNTYLHWYQQKPGQAPRLLIYKVSNRFSGVPDRFSGSGSGTDFTLKISRVEAEDVGVYYCGQGTQMPYTFGQGTKLEIK : 0.44
